biological target: Cynomologus monkey (cyno) proMMP9 (Cynomologus monkey); test: cell-based or functional assay
Property Label: IC50 (nM), MMP3/MMP9 gelatin assay
Give the number; nM is assumed, so skip it.

Input line: Give the reported IC50 (nM), MMP3/MMP9 gelatin assay for this binder. F20-VH-GL1-V1-V9/B08-VL-GL6c (antibody, human IgG4 S228P, V domains shown) VH: EVQLVESGGGLVQPGRSLRLSCAASGFTFNDYPMHWVRQAPGKGLEWVSGISSQSGSVGYAESVKGRFTISRDNAKNSLYLQMNSLRAEDTALYYCARDKIYYGSGSYDFYYYYGMDVWGQGTTVTVSS VL: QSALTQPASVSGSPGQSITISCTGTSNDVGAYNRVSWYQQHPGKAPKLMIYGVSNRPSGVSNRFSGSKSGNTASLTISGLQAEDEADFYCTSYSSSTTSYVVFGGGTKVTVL
Output line: 15.8

Input line: Give the reported IC50 (nM), MMP3/MMP9 gelatin assay for this binder. F20-VH-GL1/B08-VL-GL6c (antibody, human IgG4, V domains shown) VH: EVQLVESGGGLVQPGRSLRLSCAASGFTFNDYPMHWVRQAPGKGLEWVSGISSNSGSVGYADSVKGRFTISRDNAKNSLYLQMNSLRAEDTALYYCARDKIYYGSGSYDFYYYYGMDVWGQGTTVTVSS VL: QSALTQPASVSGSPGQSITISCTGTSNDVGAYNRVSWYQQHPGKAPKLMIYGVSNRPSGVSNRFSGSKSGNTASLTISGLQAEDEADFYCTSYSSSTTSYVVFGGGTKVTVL
Output line: 29.9

Input line: Give the reported IC50 (nM), MMP3/MMP9 gelatin assay for this binder. F20-VH-GL1-V4-V9-V14/B08-VL-GL6c (antibody, human IgG4 S228P, V domains shown) VH: EVQLVESGGGLVQPGRSLRLSCAASGFTFNDYPMHWVRQAPGKGLEWVSGISSRSGSVGYAESVKGRFTISRDNAKNSLYLQMNSLRAEDTALYYCARDKIYYGSGSYDFYYYYGIDVWGQGTTVTVSS VL: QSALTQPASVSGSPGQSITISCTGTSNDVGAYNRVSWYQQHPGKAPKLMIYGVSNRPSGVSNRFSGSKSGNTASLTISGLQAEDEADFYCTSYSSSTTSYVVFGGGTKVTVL
Output line: 10.8

Input line: Give the reported IC50 (nM), MMP3/MMP9 gelatin assay for this binder. F20-VH-GL1-V1-V9-V14/B08-VL-GL6c (antibody, human IgG4 S228P, V domains shown) VH: EVQLVESGGGLVQPGRSLRLSCAASGFTFNDYPMHWVRQAPGKGLEWVSGISSQSGSVGYAESVKGRFTISRDNAKNSLYLQMNSLRAEDTALYYCARDKIYYGSGSYDFYYYYGIDVWGQGTTVTVSS VL: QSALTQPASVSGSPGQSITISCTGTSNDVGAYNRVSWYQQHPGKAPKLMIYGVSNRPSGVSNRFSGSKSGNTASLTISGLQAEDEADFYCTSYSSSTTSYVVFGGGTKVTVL
Output line: 27.6

Input line: Give the reported IC50 (nM), MMP3/MMP9 gelatin assay for this binder. F20-VH-GL1-V1-V9-V14/B03-VL-GL1c (antibody, human IgG4 S228P, V domains shown) VH: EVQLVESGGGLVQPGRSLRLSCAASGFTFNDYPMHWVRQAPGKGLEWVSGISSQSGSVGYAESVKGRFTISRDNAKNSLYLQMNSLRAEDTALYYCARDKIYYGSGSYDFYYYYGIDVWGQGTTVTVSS VL: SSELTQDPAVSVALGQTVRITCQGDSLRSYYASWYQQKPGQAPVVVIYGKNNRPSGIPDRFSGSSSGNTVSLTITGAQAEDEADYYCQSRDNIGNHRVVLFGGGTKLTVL
Output line: 12.5
